// reported IC50 per item
Measurement protocol: Inhibition of Beta-lactamase IMP1
Assay metric: IC50 (µM)

Compound: CC1(C)[C@H](NC(=O)/C(=N\OCc2cc(=O)c(O)cn2O)c2csc(N)n2)C(=O)N1OS(=O)(=O)O (stereo in doubt)
Unit: µM
Qualifier sign: >
Observed result: 2500

Compound: C[C@H]1[C@H](NC(=O)/C(=N\OC(C)(C)C(=O)O)c2csc(N)n2)C(=O)N1S(=O)(=O)O [AZTREONAM]
Unit: µM
Qualifier sign: =
Observed result: 1100

* * *

Test system: Citrobacter freundii
Measurement protocol: Antimicrobial activity against Citrobacter freundii by broth dilution method
Assay type: functional
// reported MIC50 per item

Compound structure string: C[C@H]1[C@H](NC(=O)/C(=N\OC(C)(C)C(=O)O)c2csc(N)n2)C(=O)N1S(=O)(=O)O
MIC50: > 32 µg/mL
--
Compound structure string: C[C@@H](O)[C@H]1C(=O)N2C(C(=O)O)=C(S[C@@H]3CN[C@H](C(=O)N(C)C)C3)[C@H](C)[C@H]12
MIC50: ≤ 0.06 µg/mL
--
Compound structure string: CC(C)(O/N=C(\C(=O)N[C@@H]1C(=O)N2C(C(=O)[O-])=C(C[n+]3ccccc3)CS[C@H]12)c1csc(N)n1)C(=O)O
MIC50: > 32 µg/mL
